# Tested Target: GLP-1 receptor (UniProt P43220 24-463, limits assumed)
# Assay Details: cell-based or functional assay
Numbered stars: 1 amine (or outer) side, 2 acyl side, 3 side chain; on linkers, the order of the positions; unused ones are H or OH. Square brackets hold non-standard residues; d marks the D form. Side chains are listed from the residue outwards. Ends that are not written are not given here. * marks the point of attachment. 4‑HPA = 4-hydroxyphenylacetic acid, O=C(Cc1ccc(O[*:3])cc1)[*:2]; C16 acyl = C16 fatty acyl group bound via a gamma-Glu spacer; γGlu = O=C(O)[C@H](CCC(=O)[*:2])N[*:1]; Desaminotyrosyl = O=C(CCc1ccc(O)cc1)*; Palmitoyl = CCCCCCCCCCCCCCCC(=O)*
Readout Kind: EC50 at GLP-1 Receptor (cAMP luciferase reporter, HEK293)

{"Binder": "Ac-[dY]ALGTFTSDK([γGlu-Palmitoyl])SKYLDERAAQDFVQWLLEGGPSSGAPPPS-NH2 [peptide of SEQ ID NO: 142]", "Experimental Result": "5 pM"}
{"Binder": "[Desaminotyrosyl]AQGTFTSDYSKYLDERAAQDFVQWLLEGGPSSGAPPPSK(Palmitoyl)G-NH2 [peptide of SEQ ID NO: 157]", "Experimental Result": "13 pM"}
{"Binder": "Ac-[dY]AQGTFTSDYSKYLDERAAQDFVQWLLEAGPSSGAPPPSK([γGlu-γGlu-Palmitoyl])G-NH2 [peptide of SEQ ID NO: 159]", "Experimental Result": "9 pM"}
{"Binder": "[4‑HPA]AQGTFTSDK([γGlu-C16 acyl])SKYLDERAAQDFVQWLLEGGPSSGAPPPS-NH2 [peptide of SEQ ID NO: 156]", "Experimental Result": "2 pM"}
{"Binder": "[Desaminotyrosyl]AQGTFTSDYSKYLDERAAQDFVQWLLEGGPSSGAPPPSK([γGlu-γGlu-Palmitoyl])G-NH2 [peptide of SEQ ID NO: 160]", "Experimental Result": "22 pM"}
{"Binder": "Ac-[dF]AQGTFTSDK([γGlu-Palmitoyl])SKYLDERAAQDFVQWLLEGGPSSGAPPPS-NH2 [peptide of SEQ ID NO: 150]", "Experimental Result": "2 pM"}
{"Binder": "Ac-[dH]AQGTFTSDK([γGlu-Palmitoyl])SKYLDERAAQDFVQWLLEAGPSSGAPPPS-NH2 [peptide of SEQ ID NO: 151]", "Experimental Result": "2 pM"}
{"Binder": "Ac-[dY]AQGTFTSDYSKYLDERAAQDFVQWLLEGGPSSGAPPPSK([γGlu-γGlu-Palmitoyl])G-NH2 [peptide of SEQ ID NO: 149]", "Experimental Result": "2 pM"}
{"Binder": "Ac-[dH]AEGTFTSDK([γGlu-Palmitoyl])SKYLDERAAQDFVQWLLEAGPSSGAPPPS-NH2 [peptide of SEQ ID NO: 154]", "Experimental Result": "4 pM"}
